Target: IL-23 (human, p19/p40 heterodimer) (Homo sapiens, UniProt Q9NPF7;P29460 SEQ:20-189,SEQ:23-328)
Sequence (Q9NPF7 20-189, chain 1 of 2): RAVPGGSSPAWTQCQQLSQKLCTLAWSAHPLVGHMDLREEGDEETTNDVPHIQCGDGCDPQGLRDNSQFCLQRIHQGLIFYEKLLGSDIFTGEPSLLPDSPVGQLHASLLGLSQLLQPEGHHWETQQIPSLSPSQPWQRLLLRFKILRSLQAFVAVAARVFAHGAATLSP
Sequence (P29460 23-328, chain 2 of 2): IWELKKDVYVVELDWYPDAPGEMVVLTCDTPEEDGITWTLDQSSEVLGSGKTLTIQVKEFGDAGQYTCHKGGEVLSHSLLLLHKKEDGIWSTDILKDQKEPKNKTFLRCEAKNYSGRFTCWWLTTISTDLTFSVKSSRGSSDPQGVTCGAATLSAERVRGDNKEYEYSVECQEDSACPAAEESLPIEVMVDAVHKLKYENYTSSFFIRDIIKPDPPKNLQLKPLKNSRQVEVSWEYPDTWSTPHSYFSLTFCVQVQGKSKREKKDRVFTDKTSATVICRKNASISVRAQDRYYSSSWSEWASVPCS
Experiment: filter; DPBS Ca Mg
Settings: tags: R&D Systems, carrier free
recordedEndpoint: Kd (nM)

binder | reportedResult
rRmY clone SEQ 87 (ssRNA, 2'-OMe C,U) RNA: AGGAGAGGAGAGAACGUUCUACUAGAAGCAGGCUCGAAUACAAUUCGGAAGUCGCUGUCGAUCGAUCGAUCGAUG | 122
rRmY clone SEQ 71 (ssRNA, 2'-OMe C,U) RNA: GGGAGAGGAGAGAACGUUCUACAAAUGAGAGCAGGCCGAAGAGGAGUCGCUCGCUGUCGAUCGAUCGAUCGAUG | 124
rRmY clone SEQ 73 (ssRNA, 2'-OMe C,U) RNA: GGGAGAGGAGAGAACGUUCUACAAAUGAGAGCAGGCCGAAAAGGAGUCGCUCGCUGUCGAUCGAUCGAUCGAUG | 101
rRmY clone SEQ 81 (ssRNA, 2'-OMe C,U) RNA: GGGAGAGGAGAGAACGUUCUACGAAUGAGAGCAGGCCGAAAAGGAGUCGCUCGCUGUCGAUCGAUCGAUCGAUG | 303
rRmY clone SEQ 82 (ssRNA, 2'-OMe C,U) RNA: GGGAGAGGAGAGAACGUUCUACGAGAGGCAAGAGAGAGUCGCAUAAAAAAGACGCUGUCGAUCGAUCGAUCGAUG | 199
